List of protein stability index values.
B1: SMG5 (parent)
chain: QEKLQVLMAEGLLPAVKVFLDWLR

Variants of: B1
Assay: protein stability index of a GFP-peptide fusion (GPS, HEK-293T) (PSI 1-6); higher = more stable;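 further: lentivirally expressed fusions sorted by FACS into six bins by GFP to DsRed ratio, PSI derived from sequencing read proportions per bin multiplied by bin number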
Conditions: c terminus: a fixed tail appended
Give a plain numeric answer without units written out.

// known answers, use as guide
variant_descriptor=L23I measured_value=2.39
variant_descriptor=W22K measured_value=2.53
variant_descriptor=A15H measured_value=1.99
variant_descriptor=G11T measured_value=2.44

Sure, the documented protein stability index for K17W is 2.18

Looking up L23E , I found its protein stability index recorded as 1.26

Noted for G11P : its protein stability index reads 2.2

GET /value?item= Q1F &field=protein stability index returns 2.89

For reference, reported protein stability index for A9Y stands at 1.98

protein stability index measured on A9S = 2.19

variant A9P , protein stability index observed: 2.41

Every entry's value here was drawn from the supplement of paper PMC10567573.
